assay.target: T1, human PD-L1-his (human, UniProt Q9NZQ7 19-238)
T1 construct: also called hPD-L1-his; human His-PD-L1
T1 sequence (Q9NZQ7 19-238 limits assumed): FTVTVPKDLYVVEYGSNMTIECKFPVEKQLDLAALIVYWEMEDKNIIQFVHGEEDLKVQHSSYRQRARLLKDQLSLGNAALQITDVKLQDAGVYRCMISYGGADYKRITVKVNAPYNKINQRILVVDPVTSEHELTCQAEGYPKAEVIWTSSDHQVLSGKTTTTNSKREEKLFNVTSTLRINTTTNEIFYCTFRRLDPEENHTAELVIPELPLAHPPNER
run.description: SPR, Biacore, full kinetics, antigen 100-1.5625 nM
Criterion: koff strictly under 0.0002 s⁻¹. Met: YES. Not met: NO.

Solved cases below.
Query string: Hello, is koff of the following binder strictly smaller than 0.0002 s⁻¹? ALP-Tan-3p-112 (chimeric) (antibody, V domains shown, not shown: a dimerising Fc or GST; small tags and cut ends, Called chimeric) VH: QVQLVESGGGLVQPGGSLRLSCAASGSIFSSGTNFSDSKIDWYRQAPGKQRDWIAGIFSTGSTIYEDSVKGRFAISRDNAKNMGYLQMNSLKPEDTAVYYCRVIGRGILAWGQGTQVTVSS
Result string: NO

Query string: # iterate: 93-VH-5 (VHH, Humanized) VHH: EVQLVESGGGLVQPGGSLRLSCAASGFTFTFRHYVMGWFRQAPGKEREFVAAISWSGSGSYYADSVKGRFTISRDNSKNTLYLQMNSLRAEDTAVYYCAKDMTTRMSQASREYDYWGQGTLVTVSS
Result string: NO

Query string: # iterate: 93-VH-8 (VHH, Humanized) VHH: EVQLVESGGGLVQPGGSLRLSCAASGRTFTFRHYVMGWFRQAPGKGLEFVAAISWSGSGSYYADSVKGRFTISRDNSKNTVYLQMNSLRAEDTAVYYCAADMTTRMSQASREYDYWGQGTLVTVSS
Result string: NO

Now consider the entry below.
Query string: Hello, is koff of the following binder strictly smaller than 0.0002 s⁻¹? 93-VH-4 (VHH, Humanized) VHH: EVQLVESGGGLVQPGGSLRLSCAASGFTFTFRHYVMGWFRQAPGKGLEFVAAISWSGSGSYYADSVKGRFTISRDNSKNTVYLQMNSLRAEDTAVYYCAADMTTRMSQASREYDYWGQGTLVTVSS
Result string: YES
